# Tested on: Wolbachia pipientis
# assay.remarks: Anti-Wolbachia Cell-Based Screen
# Type: functional
# Parameters: scale not given: in the data most compounds retested in dose-response had high values
# experimental.conditions: 5 µM
The whole screen tested about 48,000 compounds, of which about 13,000 (27%) showed an effect of 50% or more. The list shows a part of the results.
assay.readout: Percent Effect (%)

1) Cc1cc(Cl)c(C)c(S(=O)(=O)N2CCN(Cc3ccccn3)CC2)c1Cl; 101.6
2) Cc1ccc(NC(=O)c2cc(S(=O)(=O)N3CCCCC3)c[nH]2)cc1F; 1.173
3) Cc1cc(C)c2cc(C(=O)N3CCN(Cc4ccco4)CC3)[nH]c2c1; 21.49
4) CN(Cc1ccc([S+](C)[O-])cc1)c1cncc(Br)c1 (stereo not drawn); 105.7
5) O=C(O)c1ccccc1-c1c(-c2ccccc2)ncn1CC1CCCO1 (stereo not drawn); -2.227
6) CN(Cc1ccc([S+](C)[O-])cc1)c1cncc(Cl)n1 (stereo not drawn); -12.95
7) CO[C@H]1COCCN(C(=O)c2ccc(C#N)cc2)C1; 6.544
8) Cc1nc(CN2CCc3nc(NC(C)C)nc(C)c3C2)cs1; 12.48
9) Cc1cc(-c2cncnc2)ccc1OCC(N)=O; -32.33
10) CCNC(c1cccnc1)c1ccc(F)c(C)c1 (stereo not drawn); 95.54
11) Cc1cc(C)c2cc(CNCc3ccccc3)c3nn(C)c(=O)n3c2c1; -7.626
12) Cc1cc(CN2CCN(S(=O)(=O)c3c(C)c(Cl)cc(C)c3Cl)CC2)on1; 85.02
13) Cc1ccc(CNCCC(O)(c2nccn2C)C(F)(F)F)o1 (stereo not drawn); -16.77
14) Cc1ccc(C)c(C(C(=O)O)N2CCCN(Cc3ccccn3)CC2)c1 (stereo not drawn); 19.25
15) Cc1ccc(N2CCCC(NCc3ccc(C)o3)C2)nn1 (stereo not drawn); 12.24
16) CCCN(CCC)S(=O)(=O)N(C)Cc1ccncc1; 3.881
17) Cc1c(NCC(C)(C)C)cccc1C(=O)N(C)Cc1ncnn1C; 4.357
18) Cc1nc2ccc(C(=O)N3CCN(CCO)[C@@H]4CS(=O)(=O)C[C@@H]43)cc2o1; -12.01
19) CCN(C(c1cccnc1)c1ccc(F)cc1F)S(C)(=O)=O (stereo not drawn); -3.142
20) Cc1ccc(S(=O)(=O)N2CCN(Cc3ccncc3)CC2)c(Cl)c1; 109.7
21) O=C(NC1CC1)NC(c1ccc(F)cc1)C1CC1 (stereo not drawn); -8.198
22) c1cc(-c2nc(CN3CCn4c(nnc4C4CC4)C3)cs2)cs1; -6.477
23) O=C(Cc1ccc(F)cc1)NCc1ccc(C(=O)O)o1; -2.994
24) Cc1ccc(CN2CCN(Cc3ccncc3)CC2=O)cc1; -11.1
25) COc1cc(F)ccc1N(C)Cc1ccncc1; -8.772
26) Cc1cc(F)c(C(C(=O)O)N2CCN(Cc3ccccn3)CC2)cc1Cl (stereo not drawn); 7.172
27) CSCc1ccc(CNC2CCCN(c3ccc(C)nn3)C2)o1 (stereo not drawn); 95.39
28) CCCN1CCN(C(=O)c2cccc3cccnc23)[C@H]2CS(=O)(=O)C[C@H]21; -6.939
29) CCN(C(c1cccnc1)c1ccc(F)c(F)c1)S(C)(=O)=O (stereo not drawn); 5.552
30) Cc1ccc(N2CCCC(NCc3cccc4c3OCCO4)C2)nn1 (stereo not drawn); 17.19
31) CCNC(c1ccc(Br)cc1)c1cccnc1 (stereo not drawn); 106.3
32) Cc1ccccc1C(CNC(=O)CSc1nnc(N)s1)N(C)C (stereo not drawn); -0.498
33) CN(Cc1ccncc1)c1cncc(Br)c1; 97.92
34) CCOCCN(C)C(c1cccnc1)c1ccc(F)cc1F (stereo not drawn); -0.1699
35) CN(Cc1ccc([S+](C)[O-])cc1)c1ccc(Br)cn1 (stereo not drawn); -27.32
36) O=C(Cn1ccc(=O)[nH]c1=O)NCc1cccnc1OCC(F)(F)F; 7.684
37) Cc1cccc(N(CCC(N)=O)C(=O)c2cc(-n3cccn3)ccn2)c1; -21.32
38) CCNC(c1cccnc1)c1ccc(F)cc1F (stereo not drawn); 101.5
39) Cc1cc(C)c2cc(CNCc3ccco3)c3nn(C)c(=O)n3c2c1; 111.5
40) COc1cccc(C(C(=O)O)N2CCCN(c3ccnc(C)c3)CC2)c1 (stereo not drawn); 11.66
41) Cn1c(NC(=O)CCS(=O)(=O)C2CCCC2)nc2cc(Cl)ccc21; 1.786
42) COc1ccc(CN(C)C(=O)CCC(=O)c2cccs2)c(OC)c1OC; -8.068
43) COc1cc(OC)cc(-n2ccnc2-c2cc3n(n2)CCNC3)c1; -3.796
44) CCNC(=O)C1CCN(c2cc(-c3ccccc3)nc3ccnn23)C1 (stereo not drawn); 11.77
45) CNc1snc(C)c1C(=O)N1CCCC(n2ccnc2C(C)C)C1 (stereo not drawn); 1.946
46) Cc1nccnc1N1Cc2cnc(CC(C)C)nc2C1; -0.1537
47) Cc1ccc(Cl)cc1NC(=O)C1CC(=O)N(Cc2ccccn2)C1 (stereo not drawn); -6.487
48) Cc1cc(C)n(CC2CCCCN2CC(=O)Nc2cccnc2)n1 (stereo not drawn); -5.388

###

# Tested on: Wolbachia pipientis
# assay.remarks: Anti-Wolbachia Cell-Based Screen
# Assay type: functional
# Set-up: scale not given: in the data most compounds retested in dose-response had high values
# experimental.conditions: 5 µM
About 13,000 (27%) of roughly 48,000 compounds showed an effect of 50% or more. The list shows a part of the results.
Form field: Percent Effect (one value per entry).
assay.readout: Percent Effect (%)

1) CN(C)S(=O)(=O)N1CC[C@@H]2CN(Cc3cnn(C)c3)C[C@@H]2C1; -2.262
2) Cc1ccnc(NC(=O)c2ccc(C)o2)c1; -0.4749
3) CCn1cc(CN2CCC(c3nnc(CN(C)C)n3CC)CC2)cn1; -1.722
4) CN(C)c1ccc(NC(=O)c2cccc(N(C)C)c2)nc1; -10.74
5) Cn1cc(CN2CCC(c3[nH]ncc3S(C)(=O)=O)C2)cn1 (stereo unspecified); 89.03
6) CC(NC(=O)NCCS(C)(=O)=O)c1ccc2c(c1)CCC(=O)N2 (stereo unspecified); 98.04
7) O=C1N(Cc2ccccc2F)CCCC12CCN(C1CCSCC1)C2 (stereo unspecified); -13.98
8) CCn1cc(CN2CCC(c3[nH]ncc3S(C)(=O)=O)C2)cn1 (stereo unspecified); 105.5
9) Cc1ccc(NC(=O)c2cccc(OCc3nnnn3C)c2)nc1; 97.4
10) Cc1ccnc(NC(=O)c2ccc(Br)o2)c1; -3.231
11) CCCn1cc(CN2CCC(c3[nH]ncc3S(C)(=O)=O)C2)cn1 (stereo unspecified); 113

###

# Tested on: Wolbachia pipientis
# assay.remarks: Anti-Wolbachia Cell-Based Screen
# Assay type: functional
# Parameters: scale not given: in the data most compounds retested in dose-response had high values
# experimental.conditions: 5 µM
Out of some 48,000 compounds screened, about 13,000 (27%) showed an effect of 50% or more. This is one part of the list.
assay.readout: Percent Effect (%)

1. CC(C)NC(=O)[C@@H]1C[C@H](N)CN1C(=O)c1cc2c([nH]c1=O)CCCC2; 1.783
2. Oc1cc(CN2CCCCC2c2cccnc2)nc2c(F)cccc12 (stereo unspecified); -16.88
3. N[C@H]1CN(C(=O)Cc2cc(F)cc(Cl)c2)C[C@@H]1C1CC1; -8.09
4. CCN(CC)S(=O)(=O)c1cc(NC(=O)CCc2cscn2)ccc1C; -4.761
5. Cc1sc2nc(SC(C)c3nc(C(C)(C)C)no3)nc(N)c2c1C (stereo unspecified); 10.97
6. Cc1cnn(CCNCC(O)COc2ccc(Cl)cc2)c1 (stereo unspecified); -10.6
7. CCC(C)(CO)NC(=O)Nc1cc2c(cc1SC)OCCO2 (stereo unspecified); -5.152
8. CN(C)c1nccc(C2CCN(c3ncccn3)CC2)n1; 131.2
9. CC(C)Cc1nc(CSCC(=O)N2CCC(C)CC2)no1; 4.489
10. Cc1ccc(N2C[C@H]3CCC[C@@H](CN4CCOCC4)[C@H]3C2)nn1.O=C(O)C(F)(F)F; 7.309
11. CCN(C)CC1CCN(S(=O)(=O)c2cc(C)c(F)cc2Cl)C1 (stereo unspecified); 6.524

###

# System: Wolbachia pipientis
# assay.remarks: Anti-Wolbachia Cell-Based Screen
# Assay type: functional
# Set-up: scale not given: in the data most compounds retested in dose-response had high values
# experimental.conditions: 5 µM
Among all 48,000 compounds or so, about 13,000 (27%) showed an effect of 50% or more. This is one part of the list.
assay.readout: Percent Effect (%)

1) CC(C)n1ccnc1C1CCN(Cc2ccc(Cl)c(F)c2)CC1; -2.763
2) Cc1nn(C)cc1-c1cc(C(F)(F)F)n(CCCN)n1; 117.1
3) Cc1c(NCc2ccccc2C#N)cccc1S(=O)(=O)NC1CC1; 7.829
4) COCCOc1ccc(NC(=O)N2CCCC2c2cccs2)cn1 (stereo not given); -5.356
5) Cc1nn(C)cc1-c1cc(C(F)(F)F)c2c(C)nn(CC(=O)O)c2n1; 1.02
6) Cc1nn(C)cc1-c1ccnc(NCCN)n1; 0.4357
7) CCC1=NOC(CNCc2cnc(-c3ccccc3C)s2)C1 (stereo not given); -1.087
8) COCCOc1ccc(NC(=O)N(C(C)C)C2CC2)cn1; -14.55
9) CCn1ccnc1CNc1nccc(-c2cn(C)nc2C)n1; -3.456
10) O=C(O)C1CCCN(c2nc3c(-c4ccccc4)csc3c(=O)[nH]2)C1 (stereo not given); 5.88
11) N#Cc1ccccc1CN1CCC(c2nccn2CC(N)=O)CC1; -2.764
12) O=S(=O)(CCNCc1ccc2c(c1)CCO2)N1CCOCC1; 0.3646
13) CC(C)N1CCC(c2cc(C(F)(F)F)n3ccnc3n2)CC1; 75.91
14) CC(C)Cc1nc(OCC(=O)O)c(C#N)c2c1CCC2; -8.981
15) Cn1cc(-c2cc(C(F)(F)F)n(CCCN)n2)cn1; 106
16) COCCn1/c(=N\C(=O)CN(C)S(C)(=O)=O)sc2cc(C)ccc21; -2.711
17) Cn1ccnc1C(NCc1csc(Br)c1)c1ccccc1 (stereo not given); -0.294
18) COCCOc1ccc(NC(=O)N(CCO)C2CC2)cn1; -3.493
19) CN(Cc1ccsc1)C(=O)Nc1cccc(N2CCOC2=O)c1; 1.632
20) COCCOc1ccc(NC(=O)C2CC(=O)N(C3CC3)C2)cn1 (stereo not given); 124.3
21) CCOc1ncccc1NC(=O)c1sccc1C; -6.226
22) COc1ccc(F)cc1CN1CCCn2nc(CNS(C)(=O)=O)cc2C1; 6.854
23) Fc1cc(CN2CCOC3(CCOCC3)C2)ccc1OC(F)F; -0.1745
24) Cc1cnc(C(=O)N2CCN(C(=O)C(C)C)[C@@H]3CS(=O)(=O)C[C@@H]32)cn1; -9.288
25) CNS(=O)(=O)CC1CCCN1c1ccc(Cl)cn1 (stereo not given); -0.6453
